Values from paper PMC11510214

For each record, write down the corresponding inhibition at 0.1 µM.
Target: acetylcholinesterase (AChE) (Homo sapiens, UniProt P22303)
Sequence (P22303 32-614): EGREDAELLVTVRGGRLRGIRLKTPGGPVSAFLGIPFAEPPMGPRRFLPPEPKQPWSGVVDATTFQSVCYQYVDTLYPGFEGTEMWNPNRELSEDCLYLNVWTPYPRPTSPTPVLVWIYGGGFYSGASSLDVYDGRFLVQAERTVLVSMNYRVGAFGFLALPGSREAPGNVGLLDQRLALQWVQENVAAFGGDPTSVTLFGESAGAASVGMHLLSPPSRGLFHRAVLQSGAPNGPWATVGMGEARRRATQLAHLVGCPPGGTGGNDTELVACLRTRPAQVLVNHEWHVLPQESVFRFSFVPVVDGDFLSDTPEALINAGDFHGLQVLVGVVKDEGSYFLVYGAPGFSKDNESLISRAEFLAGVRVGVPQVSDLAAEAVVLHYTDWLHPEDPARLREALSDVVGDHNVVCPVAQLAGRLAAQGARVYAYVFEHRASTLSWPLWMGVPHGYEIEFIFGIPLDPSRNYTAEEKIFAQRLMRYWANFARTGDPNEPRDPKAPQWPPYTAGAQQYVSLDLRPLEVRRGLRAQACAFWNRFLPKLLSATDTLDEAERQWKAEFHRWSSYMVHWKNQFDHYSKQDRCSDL
Assay: biochemical
Settings: read-out: % inhibition AChE
# number only, unit % dropped from output

q: If you can, please state the reported inhibition at 0.1 µM value of CC(=O)OC1COC(n2cc(CSc3ccc(-c4ccccn4)nn3)nn2)C(OC(C)=O)C1OC(C)=O (stereo not shown) .
a: 61

q: If you can, please state the reported inhibition at 0.1 µM value of OC[C@H]1O[C@@H](n2cc(CSc3ccc(-c4ccccn4)nn3)nn2)[C@H](O)[C@@H]1O .
a: 43

q: If you can, please state the reported inhibition at 0.1 µM value of CC(=O)OC[C@H]1O[C@@H](n2cc(CSc3ccc(-c4ccccn4)nn3)nn2)[C@H](OC(C)=O)[C@@H]1OC(C)=O .
a: 29

q: If you can, please state the reported inhibition at 0.1 µM value of NCCn1cc(CSc2ccc(-c3ccccn3)nn2)nn1 .
a: 26

###

For each record, write down the corresponding inhibition at 0.1 µM.
Target: acetylcholinesterase (AChE) (Homo sapiens)
Assay: biochemical
Conditions: read-out: % inhibition AChE
# number only, unit % dropped from output

q: If you can, please state the reported inhibition at 0.1 µM value of OCCn1cc(CSc2ccc(-c3ccccn3)nn2)nn1 .
a: 40

q: If you can, please state the reported inhibition at 0.1 µM value of OC[C@H]1O[C@@H](n2cc(CSc3ccc(-c4ccccn4)nn3)nn2)[C@H](O)[C@@H](O)[C@@H]1O .
a: 38

q: If you can, please state the reported inhibition at 0.1 µM value of OCCOCCn1cc(CSc2ccc(-c3ccccn3)nn2)nn1 .
a: 54

q: If you can, please state the reported inhibition at 0.1 µM value of CC(=O)OC[C@H]1O[C@@H](n2cc(CSc3ccc(-c4ccccn4)nn3)nn2)[C@H](OC(C)=O)[C@@H](OC(C)=O)[C@H]1OC(C)=O .
a: 29

q: If you can, please state the reported inhibition at 0.1 µM value of C#CCSc1ccc(-c2ccccn2)nn1 .
a: 23

q: If you can, please state the reported inhibition at 0.1 µM value of CC(=O)OCC1OC(n2cc(CSc3ccc(-c4ccccn4)nn3)nn2)C(OC(C)=O)C(OC(C)=O)C1OC(C)=O (stereo not drawn) .
a: 23

###

Target: acetylcholinesterase (AChE) (Homo sapiens, UniProt P22303);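 further: Kit-based enzyme assay using enzymes of human origin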
Assay: biochemical
Conditions: read-out: % inhibition AChE
For each record, write down the corresponding inhibition at 10 µM.
# number only, unit % dropped from output

q: If you can, please state the reported inhibition at 10 µM value of CC(=O)OCC1OC(n2cc(CSc3ccc(-c4ccccn4)nn3)nn2)C(OC(C)=O)C(OC(C)=O)C1OC(C)=O (stereo not shown) [Compound 3] .
a: 72

q: If you can, please state the reported inhibition at 10 µM value of OC[C@H]1O[C@@H](n2cc(CSc3ccc(-c4ccccn4)nn3)nn2)[C@H](O)[C@@H](O)[C@@H]1O [Compound 7] .
a: 80

q: If you can, please state the reported inhibition at 10 µM value of CC(=O)OC[C@H]1O[C@@H](n2cc(CSc3ccc(-c4ccccn4)nn3)nn2)[C@H](OC(C)=O)[C@@H](OC(C)=O)[C@H]1OC(C)=O [Compound 4] .
a: 71

q: If you can, please state the reported inhibition at 10 µM value of OC[C@H]1O[C@@H](n2cc(CSc3ccc(-c4ccccn4)nn3)nn2)[C@H](O)[C@@H]1O [Compound 8] .
a: 88

q: If you can, please state the reported inhibition at 10 µM value of C#CCSc1ccc(-c2ccccn2)nn1 [Compound 1] .
a: 74

q: If you can, please state the reported inhibition at 10 µM value of CC(=O)OC[C@H]1O[C@@H](n2cc(CSc3ccc(-c4ccccn4)nn3)nn2)[C@H](OC(C)=O)[C@@H]1OC(C)=O [Compound 6] .
a: 73

q: If you can, please state the reported inhibition at 10 µM value of OCCOCCn1cc(CSc2ccc(-c3ccccn3)nn2)nn1 [Compound 9] .
a: 82

q: If you can, please state the reported inhibition at 10 µM value of NCCn1cc(CSc2ccc(-c3ccccn3)nn2)nn1 [Compound 11] .
a: 76

q: If you can, please state the reported inhibition at 10 µM value of CC(=O)OC1COC(n2cc(CSc3ccc(-c4ccccn4)nn3)nn2)C(OC(C)=O)C1OC(C)=O (stereo not shown) [Compound 5] .
a: 83

q: If you can, please state the reported inhibition at 10 µM value of OCCn1cc(CSc2ccc(-c3ccccn3)nn2)nn1 [Compound 10] .
a: 83
